Test system: Escherichia coli TOP10
Assay: shrunken log2 fold change of peptide-encoding DNA abundance (4.5 h post-induction vs induction); higher = less antimicrobial activity (less host growth inhibition)
Settings: time post-induction: 4.5 h; library: site-saturation at positions 5, 18, 19, 20
Decide by shrunken log2 fold change: equal to or exceeding 0.2 means Satisfied, less means Not satisfied.

Recorded results for 4 sequences are shown here.
RRIRWRPPRLPRPRPRPMWDPRP ... Not satisfied
RRIRMRPPRLPRPRPRPMITPRP ... Not satisfied
RRIRMRPPRLPRPRPRPWILPRP ... Not satisfied
RRIRDRPPRLPRPRPRPCGFPRP ... Not satisfied

Lab note: next sequence to report on.
Check the entry RRIRGRPPRLPRPRPRPPHTPRP : does shrunken log2 fold change equal or exceed 0.2?
Satisfied

###

Tested on: Escherichia coli TOP10
Experiment: shrunken log2 fold change of peptide-encoding DNA abundance (4.5 h post-induction vs induction); higher = less antimicrobial activity (less host growth inhibition)
Settings: time post-induction: 4.5 h; library: site-saturation at positions 5, 18, 19, 20
Decide by shrunken log2 fold change: equal to or exceeding -0.07 means TRUE, less means FALSE.

Recorded results for 5 sequences are shown here.
RRIRYRPPRLPRPRPRPHMTPRP ... FALSE
RRIRSRPPRLPRPRPRPTFQPRP ... TRUE
RRIRTRPPRLPRPRPRPHECPRP ... FALSE
RRIRIRPPRLPRPRPRPIPFPRP ... FALSE
RRIRSRPPRLPRPRPRPYFYPRP ... FALSE

Check the entry RRIRYRPPRLPRPRPRPGHSPRP : does shrunken log2 fold change equal or exceed -0.07?
FALSE

Check the entry RRIRDRPPRLPRPRPRPAVIPRP : does shrunken log2 fold change equal or exceed -0.07?
TRUE

Check the entry RRIRARPPRLPRPRPRPKYDPRP : does shrunken log2 fold change equal or exceed -0.07?
FALSE

Check the entry RRIRNRPPRLPRPRPRPWKVPRP : does shrunken log2 fold change equal or exceed -0.07?
FALSE

Check the entry RRIRCRPPRLPRPRPRPFEYPRP : does shrunken log2 fold change equal or exceed -0.07?
FALSE

Check the entry RRIRLRPPRLPRPRPRPQKHPRP : does shrunken log2 fold change equal or exceed -0.07?
FALSE

Check the entry RRIRHRPPRLPRPRPRPREHPRP : does shrunken log2 fold change equal or exceed -0.07?
FALSE

Check the entry RRIRNRPPRLPRPRPRPWNWPRP : does shrunken log2 fold change equal or exceed -0.07?
TRUE

Check the entry RRIRYRPPRLPRPRPRPARFPRP : does shrunken log2 fold change equal or exceed -0.07?
TRUE

Check the entry RRIRLRPPRLPRPRPRPMISPRP : does shrunken log2 fold change equal or exceed -0.07?
TRUE

Check the entry RRIRHRPPRLPRPRPRPICGPRP : does shrunken log2 fold change equal or exceed -0.07?
TRUE

###

System: Escherichia coli TOP10
Assay: shrunken log2 fold change of peptide-encoding DNA abundance (4.5 h post-induction vs induction); higher = less antimicrobial activity (less host growth inhibition)
Settings: time post-induction: 4.5 h; library: site-saturation at positions 5, 18, 19, 20
This section presents sequences with their documented shrunken log2 fold change values.
Output spec: single numeric token, no unit.

Answered examples (3):
RRIRGRPPRLPRPRPRPSWCPRP ... 0.013
RRIRQRPPRLPRPRPRPPAAPRP ... 0.778
RRIRRRPPRLPRPRPRPKYVPRP ... -0.194

For the sequence shown here, RRIRARPPRLPRPRPRPAHAPRP , give the reported shrunken log2 fold change.
1.07

For the sequence shown here, RRIRNRPPRLPRPRPRPVTIPRP , give the reported shrunken log2 fold change.
-0.463

For the sequence shown here, RRIRKRPPRLPRPRPRPRAIPRP , give the reported shrunken log2 fold change.
0.304

For the sequence shown here, RRIRYRPPRLPRPRPRPMCWPRP , give the reported shrunken log2 fold change.
-0.213

For the sequence shown here, RRIRPRPPRLPRPRPRPFNDPRP , give the reported shrunken log2 fold change.
0.0502

For the sequence shown here, RRIRMRPPRLPRPRPRPARWPRP , give the reported shrunken log2 fold change.
1.49

For the sequence shown here, RRIRERPPRLPRPRPRPGNGPRP , give the reported shrunken log2 fold change.
-0.0693

For the sequence shown here, RRIRDRPPRLPRPRPRPRSGPRP , give the reported shrunken log2 fold change.
0.276

For the sequence shown here, RRIRQRPPRLPRPRPRPGQNPRP , give the reported shrunken log2 fold change.
-0.223

For the sequence shown here, RRIRHRPPRLPRPRPRPHDNPRP , give the reported shrunken log2 fold change.
-0.483

For the sequence shown here, RRIRLRPPRLPRPRPRPPKNPRP , give the reported shrunken log2 fold change.
0.43

For the sequence shown here, RRIRPRPPRLPRPRPRPEKSPRP , give the reported shrunken log2 fold change.
0.264

For the sequence shown here, RRIRMRPPRLPRPRPRPCKIPRP , give the reported shrunken log2 fold change.
-0.0518

###

System: Escherichia coli TOP10
Assay: shrunken log2 fold change of peptide-encoding DNA abundance (4.5 h post-induction vs induction); higher = less antimicrobial activity (less host growth inhibition)
Settings: time post-induction: 4.5 h; library: site-saturation at positions 5, 18, 19, 20
Classify by shrunken log2 fold change. Ranges: low (below -0.2), medium (-0.2 to below 0.04), high (0.04 or more)

RRIRQRPPRLPRPRPRPHIRPRP ... low

Please indicate the class for RRIRMRPPRLPRPRPRPTDRPRP based on its shrunken log2 fold change.
high

Please indicate the class for RRIRERPPRLPRPRPRPFNKPRP based on its shrunken log2 fold change.
low

Please indicate the class for RRIRKRPPRLPRPRPRPKLKPRP based on its shrunken log2 fold change.
high

###

System: Escherichia coli TOP10
Assay: shrunken log2 fold change of peptide-encoding DNA abundance (4.5 h post-induction vs induction); higher = less antimicrobial activity (less host growth inhibition)
Conditions: time post-induction: 4.5 h; library: site-saturation at positions 5, 18, 19, 20
MEASURED ENDPOINT: shrunken log2 fold change
Output spec: single numeric token, no unit.

Answered examples (8):
RRIRPRPPRLPRPRPRPAPWPRP ... 0.436
RRIRERPPRLPRPRPRPYREPRP ... -0.00865
RRIRVRPPRLPRPRPRPRILPRP ... -0.412
RRIRWRPPRLPRPRPRPVAMPRP ... 0.427
RRIRRRPPRLPRPRPRPWHFPRP ... 0.121
RRIRRRPPRLPRPRPRPMPFPRP ... -0.0201
RRIRRRPPRLPRPRPRPPLLPRP ... 0.675
RRIRFRPPRLPRPRPRPEDQPRP ... 0.502

API: value(readout=shrunken log2 fold change, system=Escherichia coli TOP10) for record RRIRARPPRLPRPRPRPTNLPRP
0.0653

API: value(readout=shrunken log2 fold change, system=Escherichia coli TOP10) for record RRIRVRPPRLPRPRPRPSYAPRP
-0.477

API: value(readout=shrunken log2 fold change, system=Escherichia coli TOP10) for record RRIRARPPRLPRPRPRPSRHPRP
-0.00582

API: value(readout=shrunken log2 fold change, system=Escherichia coli TOP10) for record RRIRPRPPRLPRPRPRPYTDPRP
-0.562

API: value(readout=shrunken log2 fold change, system=Escherichia coli TOP10) for record RRIRGRPPRLPRPRPRPQSTPRP
0.649

API: value(readout=shrunken log2 fold change, system=Escherichia coli TOP10) for record RRIRERPPRLPRPRPRPYWFPRP
-1.02

API: value(readout=shrunken log2 fold change, system=Escherichia coli TOP10) for record RRIRWRPPRLPRPRPRPAYEPRP
-0.0308

API: value(readout=shrunken log2 fold change, system=Escherichia coli TOP10) for record RRIRRRPPRLPRPRPRPWCEPRP
-0.0981

###

Test system: Escherichia coli TOP10;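 note: peptides expressed intracellularly from a pBAD plasmid library in pooled LB shake-flask culture, induced with 0.3% L-arabinose, DNA abundance read by NGS, three biological replicates, DESeq2 with apeglm shrinkage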
Assay: shrunken log2 fold change of peptide-encoding DNA abundance (4.5 h post-induction vs induction); higher = less antimicrobial activity (less host growth inhibition)
Settings: time post-induction: 4.5 h; library: site-saturation at positions 5, 18, 19, 20
Classify by shrunken log2 fold change. Ranges: band 1 (below -0.1), band 2 (-0.1 to below 0.3), band 3 (0.3 or more)

Recorded results for 5 sequences are shown here.
RRIRRRPPRLPRPRPRPMAHPRP ... band 2
RRIRKRPPRLPRPRPRPFAAPRP ... band 3
RRIRCRPPRLPRPRPRPEAGPRP ... band 3
RRIRARPPRLPRPRPRPHNSPRP ... band 3
RRIRCRPPRLPRPRPRPCHIPRP ... band 2

Please indicate the class for RRIRTRPPRLPRPRPRPQPHPRP based on its shrunken log2 fold change.
band 2

Please indicate the class for RRIRNRPPRLPRPRPRPNMDPRP based on its shrunken log2 fold change.
band 2

Please indicate the class for RRIRRRPPRLPRPRPRPEEWPRP based on its shrunken log2 fold change.
band 2

Please indicate the class for RRIRFRPPRLPRPRPRPAEQPRP based on its shrunken log2 fold change.
band 3
